log10 of IC50 for assorted compounds
biological target: aldosterone synthase (CYP11B2) (Macaca fascicularis, UniProt A0A2K5UPL9); assay: Inhibition of aldosterone synthase (cynomolgus adrenal mitochondria, aldosterone by mass spectrometry); format: biochemical, cynomolgus monkey; conditions: 2 μM corticosterone substrate, 50 units CYP11B2, 90 min, 37° C.; read-out: Aldosterone Inhibition IC50
Sequence (A0A2K5UPL9 1-503): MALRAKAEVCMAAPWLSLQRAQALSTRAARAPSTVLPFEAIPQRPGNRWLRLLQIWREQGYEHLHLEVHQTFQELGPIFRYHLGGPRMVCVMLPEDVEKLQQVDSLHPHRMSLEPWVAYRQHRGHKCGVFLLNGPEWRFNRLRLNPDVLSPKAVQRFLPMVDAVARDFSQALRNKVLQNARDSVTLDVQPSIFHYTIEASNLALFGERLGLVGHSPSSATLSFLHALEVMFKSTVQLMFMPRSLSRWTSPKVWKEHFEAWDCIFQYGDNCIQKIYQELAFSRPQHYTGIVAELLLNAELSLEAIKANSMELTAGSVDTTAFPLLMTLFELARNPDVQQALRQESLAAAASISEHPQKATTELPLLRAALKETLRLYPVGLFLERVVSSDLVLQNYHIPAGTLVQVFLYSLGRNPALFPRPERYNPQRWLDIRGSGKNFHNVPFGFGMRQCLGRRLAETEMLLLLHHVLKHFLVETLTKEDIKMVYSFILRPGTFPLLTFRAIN
Units before log transform: nM; reported quantity: IC50; transform: log10.

[
  {
    "Compound": "CC1(C)CC(=O)c2c(ncn2Cc2ccc(C(=O)NCCS(C)(=O)=O)cc2)C1",
    "Target": "aldosterone synthase (CYP11B2) (Macaca fascicularis, UniProt A0A2K5UPL9)",
    "Reported Metric": "log10 of IC50",
    "Readout Number": 2.32
  },
  {
    "Compound": "Cn1c(=O)oc2cc(-n3cnc4c3C(=O)CCC4)ccc21",
    "Target": "aldosterone synthase (CYP11B2) (Macaca fascicularis, UniProt A0A2K5UPL9)",
    "Reported Metric": "log10 of IC50",
    "Readout Number": 2.08
  },
  {
    "Compound": "CC1(C)CC(=O)c2c(ncn2-c2ccc3c(c2)OCO3)C1",
    "Target": "aldosterone synthase (CYP11B2) (Macaca fascicularis, UniProt A0A2K5UPL9)",
    "Reported Metric": "log10 of IC50",
    "Readout Number": 1.53
  },
  {
    "Compound": "CC1(C)CC(=O)c2c(ncn2-c2ccc(F)cc2)C1",
    "Target": "aldosterone synthase (CYP11B2) (Macaca fascicularis, UniProt A0A2K5UPL9)",
    "Reported Metric": "log10 of IC50",
    "Readout Number": 1.32
  }
]

Incoming: Any idea what its log10 of IC50 is? The compound is O=C1CCCc2ncn(C3CCc4ccccc4C3)c21 (stereo not shown)
Outgoing: 0.45

###

Listed here: items and their measured pIC50.
biological target: cortisol synthase (CYP11B1) (Macaca fascicularis); assay: Inhibition of cortisol synthesis (cynomolgus adrenal mitochondria, cortisol by mass spectrometry); format: biochemical, cynomolgus monkey; settings: read-out: Cortisol Inhibition IC50; 11-deoxycortisol substrate, 150 units CYP11B1
pIC50 here: minus log base 10 of the concentration, concentration in moles per litre.

[
  {
    "Compound": "N#Cc1ccc(-n2cnc3c2C(=O)CC2(CC2)C3)cc1Cl",
    "Readout Number": 6.66
  },
  {
    "Compound": "CC1(C)CC(=O)c2c(ncn2C2CCCc3ccccc32)C1 (stereo not shown)",
    "Readout Number": 4.59
  },
  {
    "Compound": "N#Cc1ccc(-n2cnc3c2C(=O)CCC3)cc1Cl",
    "Readout Number": 5.96
  }
]

Incoming: Checklist item: pIC50 tested on cortisol synthase (CYP11B1) (Macaca fascicularis), entry N#Cc1ccc(-n2cnc3c2C(=O)CC(CO)C3)cc1Cl (stereo not shown) , value?
Outgoing: 5.07

###

biological target: cortisol synthase (CYP11B1) (Macaca fascicularis, UniProt A0A2K5ULY1); experiment: Inhibition of cortisol synthesis (cynomolgus adrenal mitochondria, cortisol by mass spectrometry); type: biochemical, cynomolgus monkey; settings: 11-deoxycortisol substrate, 150 units CYP11B1; read-out: Cortisol Inhibition IC50
Could you please mark class 1 for values of IC50 below 9 µM and class 0 for values at or above it?

Use the examples below as a reference point.
[
  {
    "Molecule": "NC(=O)N1CCCc2cc(-n3cnc4c3C(=O)CCC4)ccc21",
    "Class Name": "class 0"
  },
  {
    "Molecule": "O=C1CCCc2ncn(-c3ccc4c(c3)OCCO4)c21",
    "Class Name": "class 0"
  },
  {
    "Molecule": "CC1(C)CC(=O)c2c(ncn2C2CCc3ncncc3C2)C1 (stereo not drawn)",
    "Class Name": "class 0"
  },
  {
    "Molecule": "CC1(C)CC(=O)c2c(ncn2[C@H]2C[C@@H]3CC[C@H]2C3)C1",
    "Class Name": "class 0"
  },
  {
    "Molecule": "CC1CCc2ncn(-c3ccc(C#N)cc3)c2C1=O (stereo not drawn)",
    "Class Name": "class 1"
  }
]

Incoming: For CC1(C)CC(=O)c2c(ncn2-c2cccc(Cl)c2)C1 , is the recorded IC50 below the cut-off of 9 µM?
Outgoing: class 1

###

molecular target: aldosterone synthase (CYP11B2) (Macaca fascicularis, UniProt A0A2K5UPL9); assay: Inhibition of aldosterone synthase (cynomolgus adrenal mitochondria, aldosterone by mass spectrometry); type: biochemical, cynomolgus monkey; conditions: 2 μM corticosterone substrate, 50 units CYP11B2, 90 min, 37° C.; read-out: Aldosterone Inhibition IC50
Reported Metric: pIC50
To interpret pIC50, take it as minus log10 of a concentration measured in moles per litre.

Record excerpt, results attached:
[
  {
    "Compound": "CC1(C)CC(=O)c2c(ncn2-c2ccc(C(F)(F)F)cc2)C1 [C-ACI]",
    "Readout Number": 7.21
  },
  {
    "Compound": "CC1(C)CC(=O)c2c(ncn2-c2cccc(Cl)c2Cl)C1 [C-ABF]",
    "Readout Number": 8.42
  },
  {
    "Compound": "Cn1ncc2cc(-n3cnc4c3C(=O)CCC4)ccc21 [C-AAG]",
    "Readout Number": 7.00
  },
  {
    "Compound": "CC1(C)CC(=O)c2c(ncn2-c2ccc(Cl)cc2Cl)C1 [C-ABG]",
    "Readout Number": 8.38
  },
  {
    "Compound": "CN1C(=O)COc2cc(-n3cnc4c3C(=O)CCC4)ccc21 [C-AAN]",
    "Readout Number": 7.08
  }
]

Incoming: Report pIC50 for CC1(C)CC(=O)c2c(ncn2-c2ccc(Cl)cc2)C1 [C-ABN] please.
Outgoing: 7.82

###

target: cortisol synthase (CYP11B1) (Macaca fascicularis, UniProt A0A2K5ULY1); assay: Inhibition of cortisol synthesis (cynomolgus adrenal mitochondria, cortisol by mass spectrometry); format: biochemical, cynomolgus monkey; conditions: 11-deoxycortisol substrate, 150 units CYP11B1; read-out: Cortisol Inhibition IC50
Decide using IC50 alone. Strictly below 7 µM: Yes. Equal to or above 7 µM: No.

Sample answers from the record:
[
  {
    "Compound": "CN1C(=O)CCc2cc(-n3cnc4c3C(=O)CC3(CCOCC3)C4)ccc21",
    "Class Name": "No"
  },
  {
    "Compound": "Cn1c(=O)oc2cc(-n3cnc4c3C(=O)CCC4)ccc21",
    "Class Name": "No"
  },
  {
    "Compound": "CC1(C)CC(=O)c2c(ncn2C2CCc3ccccc32)C1 (stereo not drawn)",
    "Class Name": "No"
  },
  {
    "Compound": "CC1(C)CC(=O)c2c(ncn2Cc2ccccc2)C1",
    "Class Name": "No"
  },
  {
    "Compound": "COC(=O)c1ccc(-n2cnc3c2C(=O)CC(C)(C)C3)cc1",
    "Class Name": "No"
  }
]

Incoming: For CC1(C)CC(=O)c2c(ncn2-c2ccc3c(c2)OCO3)C1 , is the recorded IC50 below the cut-off of 7 µM?
Outgoing: Yes

Incoming: Repeat with CC1(C)CC(=O)c2c(ncn2-c2cc(Cl)cc(Cl)c2)C1
Outgoing: Yes

Incoming: Subsequent entry: Cn1ncc2ccc(-n3cnc4c3C(=O)CCC4)cc21
Outgoing: No

Incoming: // next record Cn1ncc2cc(-n3cnc4c3C(=O)CCC4)ccc21
Outgoing: No

Incoming: Next record, please: CC1(C)CCc2ncn(-c3ccc(C#N)cc3)c2C1=O
Outgoing: Yes

###

target: aldosterone synthase (CYP11B2) (Macaca fascicularis, UniProt A0A2K5UPL9); test: Inhibition of aldosterone synthase (cynomolgus adrenal mitochondria, aldosterone by mass spectrometry); type: biochemical, cynomolgus monkey; conditions: 2 μM corticosterone substrate, 50 units CYP11B2, 90 min, 37° C.; read-out: Aldosterone Inhibition IC50
pIC50: −log10 of the molar value.
Classification field: Condition met = pIC50 at or over 7; Condition not met = pIC50 under 7.

For orientation, consider the following solved cases.
[
  {
    "Molecule": "CC1(C)CC(=O)c2c(ncn2-c2ccc(C#N)cc2)C1 [C-ABX]",
    "Class Name": "Condition met"
  },
  {
    "Molecule": "CC1(C)CC(=O)c2c(ncn2-c2ccc(Cl)nc2)C1 [C-ABT]",
    "Class Name": "Condition not met"
  },
  {
    "Molecule": "O=C1CCCc2ncn(-c3ccc4c(c3)CCO4)c21 [C-AAE]",
    "Class Name": "Condition met"
  }
]

Query molecule follows.
Incoming: Check if pIC50 >= 7 (inclusive). Item: CC1(C)CC(=O)c2c(ncn2[C@H]2C[C@@H]3CC[C@H]2C3)C1 [C-ACL]
Outgoing: Condition not met

###

biological target: aldosterone synthase (CYP11B2) (Macaca fascicularis); assay: Inhibition of aldosterone synthase (cynomolgus adrenal mitochondria, aldosterone by mass spectrometry); assay type: biochemical, cynomolgus monkey; conditions: 2 μM corticosterone substrate, 50 units CYP11B2, 90 min, 37° C.; read-out: Aldosterone Inhibition IC50
Reported Metric: pIC50
Please report pIC50 as the negative decimal logarithm of the molar concentration, giving only the number.

Before answering, review these 5 worked examples.
[
  {
    "Compound": "CN1CCOc2cc(Cn3cnc4c3C(=O)CC(C)(C)C4)cnc21 [C-ADD]",
    "Target": "aldosterone synthase (CYP11B2) (Macaca fascicularis)",
    "pIC50": 6.27
  },
  {
    "Compound": "CC1(C)CC(=O)c2c(ncn2CC2CCOC2)C1 (centres unmarked) [C-ACX]",
    "Target": "aldosterone synthase (CYP11B2) (Macaca fascicularis)",
    "pIC50": 6.06
  },
  {
    "Compound": "CC1(C)CC(=O)c2c(ncn2Cc2ccc(C(C)(C)O)cc2)C1 [C-ADV]",
    "Target": "aldosterone synthase (CYP11B2) (Macaca fascicularis)",
    "pIC50": 7.60
  },
  {
    "Compound": "COc1ccc(Cn2cnc3c2C(=O)CC(C)(C)C3)cc1 [C-ADQ]",
    "Target": "aldosterone synthase (CYP11B2) (Macaca fascicularis)",
    "pIC50": 7.02
  },
  {
    "Compound": "N#Cc1ccc(-n2cnc3c2C(=O)C[C@H](C(N)=O)C3)cc1Cl [C-AEB-B]",
    "Target": "aldosterone synthase (CYP11B2) (Macaca fascicularis)",
    "pIC50": 7.49
  }
]

Incoming: Item under review: N#C[C@H]1CC[C@H](n2cnc3c2C(=O)CCC3)CC1 [C-ACJ] . Reported pIC50?
Outgoing: 7.52

Incoming: Could you do the same for CC1(C)CC(=O)c2c(ncn2C2CCc3cc(C#N)ccc3C2)C1 (centres unmarked) [C-ADN] , please?
Outgoing: 6.72

Incoming: Repeat with CC1(C)CC(=O)c2c(ncn2-c2ccccc2)C1 [C-ACA]
Outgoing: 6.60
